IC50 for assorted compounds
Target: PLK1 (Homo sapiens, UniProt P53350)
Construct: Full-length, active GST-PLK1 is purified from Sf9 insect cells; made in house; host or cells: Sf9 insect cells
Sequence (P53350 whole entry): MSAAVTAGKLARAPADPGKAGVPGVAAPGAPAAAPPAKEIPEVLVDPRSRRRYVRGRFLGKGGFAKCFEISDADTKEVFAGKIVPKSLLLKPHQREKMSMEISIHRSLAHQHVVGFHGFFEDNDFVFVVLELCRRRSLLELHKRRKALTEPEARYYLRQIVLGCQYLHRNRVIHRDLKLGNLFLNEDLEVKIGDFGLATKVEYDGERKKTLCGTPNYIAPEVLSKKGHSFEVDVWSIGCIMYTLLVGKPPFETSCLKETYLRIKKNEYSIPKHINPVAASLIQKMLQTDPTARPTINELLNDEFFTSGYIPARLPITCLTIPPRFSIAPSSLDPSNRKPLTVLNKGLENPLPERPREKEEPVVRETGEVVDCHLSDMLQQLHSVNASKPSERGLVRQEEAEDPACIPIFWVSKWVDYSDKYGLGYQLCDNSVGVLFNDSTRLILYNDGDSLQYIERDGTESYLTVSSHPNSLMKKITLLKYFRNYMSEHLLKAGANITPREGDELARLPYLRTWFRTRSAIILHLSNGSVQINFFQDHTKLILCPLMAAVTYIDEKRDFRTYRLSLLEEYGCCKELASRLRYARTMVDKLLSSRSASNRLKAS
Experiment: Biochemical Characterization Assay: HTRF kinase assay, GST-PLK1 phosphorylation of GST-p53
Details: GST-PLK1, GST-p53 substrate, ATP
measured-metric: IC50

1. COc1cc(C(=O)NCCC2CCCN2C)ccc1Nc1ncc2c(n1)N(C1CCCC1)CC(F)(F)C(=O)N2C (stereo not shown) [Example I-112] ... 1 to 50 nM
2. COc1cc(C(=O)NCc2ccc(C(F)(F)F)cc2)ccc1Nc1ncc2c(n1)N(C1CCCC1)CC(F)(F)C(=O)N2C [Example I-36] ... 500 to 5000 nM
3. COc1cc(C(=O)NCC2CCNC2)ccc1Nc1ncc2c(n1)N(C1CCCC1)CC(F)(F)C(=O)N2C (stereo not shown) [Example I-93] ... 1 to 50 nM
4. COc1cc(C(=O)NCCN2CCCCC2)ccc1Nc1ncc2c(n1)N(C1CCCC1)CC(F)(F)C(=O)N2C [Example I-114] ... 1 to 50 nM
5. COc1cc(C(=O)NCCCN(C)C)ccc1Nc1ncc2c(n1)N(C1CCC1)CC(F)(F)C(=O)N2C [Example I-9] ... 1 to 50 nM
6. COCCCNC(=O)c1ccc(Nc2ncc3c(n2)N(C2CCCC2)CC(F)(F)C(=O)N3C)c(OC)c1 [Example I-29] ... 1 to 50 nM
7. COc1cc(C(=O)NCCN2CCOCC2)ccc1Nc1ncc2c(n1)N(C1CCCC1)CC(F)(F)C(=O)N2C [Example I-117] ... 1 to 50 nM
8. COc1cc(C(=O)NCCN2CCN(C)CC2)ccc1Nc1ncc2c(n1)N(C1CCCC1)CC(F)(F)C(=O)N2C [Example I-47] ... 1 to 50 nM
9. COc1cc(C(=O)NCCc2ccccn2)ccc1Nc1ncc2c(n1)N(C1CCCC1)CC(F)(F)C(=O)N2C [Example I-116] ... 1 to 50 nM
10. COc1cc(C(=O)NCCCNC(C)C)ccc1Nc1ncc2c(n1)N(C1CCCC1)CC(F)(F)C(=O)N2C [Example I-46] ... 1 to 50 nM
11. CNC(=O)c1ccc(Nc2ncc3c(n2)N(C2CCCC2)CC(F)(F)C(=O)N3)c(OC)c1 [Example I-153] ... 500 to 5000 nM
12. COc1cc(C(=O)NCCN(C)C)ccc1Nc1ncc2c(n1)N(C1CCC1)CC(F)(F)C(=O)N2C [Example I-8] ... 1 to 50 nM
13. COc1cc(C(=O)NC2CN3CCC2CC3)ccc1Nc1ncc2c(n1)N(C1CCCC1)CC(F)(F)C(=O)N2C (stereo not shown) [Example I-106] ... 1 to 50 nM
14. COc1cc(C(=O)N[C@@H]2CCN(C(=O)OC(C)(C)C)C2)ccc1Nc1ncc2c(n1)N(C1CCCC1)CC(F)(F)C(=O)N2C [Example I-81] ... 51 to 500 nM
15. CN1C(=O)C(F)(F)CN(C2CCC2)c2nc(Nc3ccc(C(=O)NC4CCOCC4)cc3)ncc21 [Example I-17] ... 1 to 50 nM
16. COc1cc(C(=O)NCCc2ccc3c(c2)OCO3)ccc1Nc1ncc2c(n1)N(C1CCCC1)CC(F)(F)C(=O)N2C [Example I-43] ... 51 to 500 nM
17. COc1cc(C(=O)NC2CC3CCC(C2)N3C)ccc1Nc1ncc2c(n1)N(C1CCCC1)CC(F)(F)C(=O)N2C (stereo not shown) [Example I-50] ... 1 to 50 nM
18. CNC(=O)c1ccc(Nc2ncc3c(n2)N(C2CCCC2)CC(F)(F)C(=O)N3C)c(OC)c1 [Example I-24] ... 1 to 50 nM
19. CN1C(=O)C(F)(F)CN(C2CCC2)c2nc(Nc3ccc(C(N)=O)cc3)ncc21 [Example I-12] ... 51 to 500 nM
20. CN(C)CCNC(=O)c1ccc(Nc2ncc3c(n2)N(C2CCC2)CC(F)(F)C(=O)N3C)cc1 [Example I-18] ... 1 to 50 nM
21. CN1CCC(NC(=O)c2ccc(Nc3ncc4c(n3)N(C3CCCC3)CC(F)(F)C(=O)N4)cc2)CC1 [Example I-134] ... 51 to 500 nM
22. COc1cc(C(=O)NCc2cccnc2)ccc1Nc1ncc2c(n1)N(C1CCCC1)CC(F)(F)C(=O)N2C [Example I-111] ... 1 to 50 nM
